System: OVCAR-5 ovarian
PROTOCOL_SUMMARY: NCI tumour cell line growth inhibition, 48 h
Task for the reader: assign each of the following compounds its reported TGI.
Answers are plain numbers, in µM.

COMPOUND	TESTED_SYSTEM	UNIT_OF_MEASURE	TGI
C=C1CC(Cn2cc(Br)c(=O)[nH]c2=O)(c2ccc(-c3ccccc3)cc2)OC1=O (stereo not given)	OVCAR-5 ovarian	µM	15.6

Next compound, please.
TGI reading for COC(=O)n1c(C[P+](c2ccccc2)(c2ccccc2)c2ccccc2)cc2ccccc21 : 8.66

====

Test system: XF 498 CNS
PROTOCOL_SUMMARY: NCI tumour cell line growth inhibition, 48 h
ATTRIBUTE_MEASURED: TGI (µM)
One number for each entry, in µM.

Example entries and their recorded answers appear below.
COMPOUND	VALUE
COC(=O)n1c(C[P+](c2ccccc2)(c2ccccc2)c2ccccc2)cc2ccccc21	6.09
O=C1C(c2ccccc2)=C(c2ccccc2)[C@H](c2ccccc2)[C@]1(Cc1nnn(-c2ccc([N+](=O)[O-])cc2)c1N1CCOCC1)c1ccccc1	26.5
Cc1cc([N+](=O)[O-])c(S(=O)(=O)c2ccccc2)c([N+](=O)[O-])c1	27.6

Quick batch: TGI for everything below.
1. COc1ccc(CC2=NCCc3cc(OC)c(OC)cc32)cc1Br
2. CC(=O)OCCC(O[Si](c1ccccc1)(c1ccccc1)C(C)(C)C)C(C)(C)O (stereo not given)

Result block:
53.1
96.8
